The reported numbers originate from patent US20240252488A1.

# tested-target: MLKL (Homo sapiens)
# Sequence (Q8NB16 1-471): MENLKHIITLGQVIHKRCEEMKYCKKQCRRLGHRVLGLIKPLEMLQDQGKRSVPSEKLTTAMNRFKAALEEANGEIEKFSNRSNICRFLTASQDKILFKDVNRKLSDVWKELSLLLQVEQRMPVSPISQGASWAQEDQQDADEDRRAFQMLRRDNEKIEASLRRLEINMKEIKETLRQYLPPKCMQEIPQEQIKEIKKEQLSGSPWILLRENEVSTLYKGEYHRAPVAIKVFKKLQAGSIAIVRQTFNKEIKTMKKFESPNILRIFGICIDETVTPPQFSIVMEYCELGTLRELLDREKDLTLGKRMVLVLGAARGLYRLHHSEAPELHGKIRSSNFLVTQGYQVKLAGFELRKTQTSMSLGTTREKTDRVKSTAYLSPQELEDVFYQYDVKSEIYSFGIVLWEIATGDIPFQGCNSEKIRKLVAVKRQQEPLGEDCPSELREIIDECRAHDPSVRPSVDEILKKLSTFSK
# protocol-details: MLKL degradation assay in HepG2 cell line (western blot)
# Assay type: cell-based
# Set-up: endogenous in cells; host or cells: HepG2 or HaCaT
# settings: compound 10 μM; cell line not given
measurement-type: Degradation assay (Degradation %) 10 μM

These solved cases illustrate the format of a correct answer.
>  <compound>
Nc1ncc(-c2cnn(C3CCN(CCOC4CCN(C(=O)COc5ccc6c(c5)C(=O)N(C5CCC(=O)NC5=O)C6=O)CC4)CC3)c2)nc1C(=O)O[C@@H](C(=O)Nc1ccc(F)cc1)c1ccccc1 (stereo partly shown)

>  <Degradation assay (Degradation %) 10 μM>
63.17

$$$$
>  <compound>
Nc1ncc(-c2cnn(C3CCN(CC4CN(C(=O)C5CCN(c6cccc7c6C(=O)N(C6CCC(=O)NC6=O)C7=O)CC5)CCO4)CC3)c2)nc1C(=O)OC(C(=O)Nc1ccc(F)cc1)c1ccccc1 (stereo not shown)

>  <Degradation assay (Degradation %) 10 μM>
84.91

$$$$

1 = Nc1ncc(-c2cnn(C3CCN(CC4CCN(CC5CCN(C(=O)c6ccc7c(c6)CN(C6CCC(=O)NC6=O)C7=O)CC5)CC4)CC3)c2)nc1C(=O)O[C@@H](C(=O)Nc1ccc(F)cc1)c1ccccc1 (stereo partly shown)
2 = COc1ccc(C(=O)N2CCC(OCCN3CCC(n4cc(-c5cnc(N)c(C(=O)O[C@@H](C(=O)Nc6ccc(F)cc6)c6ccccc6)n5)cn4)CC3)CC2)cc1N1CCC(=O)NC1=O
Which of these two has the smaller recorded Degradation assay (Degradation %) 10 μM: 1 or 2 ? Selection: enter the item's label.
2

###

# System: FADD−/− Jurkat cells
# protocol-details: Necroptosis inhibition assay, TNF-α-induced necroptosis (CellTiter-Glo 2.0)
# Type: cell-based, human
# settings: compound 1 μM; TNF-α 15 ng/mL
measurement-type: Necroptosis inhibition assay (Rescue %) 1 μM
Supply the numeric figure in %, leaving out any unit text.

>  <compound>
Nc1ncc(-c2cnn(C3CCN(C(=O)C4CCN(C(=O)CC5CCN(c6cccc7c6C(=O)N(C6CCC(=O)NC6=O)C7=O)CC5)CC4)CC3)c2)nc1C(=O)O[C@@H](C(=O)Nc1ccc(F)cc1)c1ccccc1 (some centres unmarked)

>  <measurement-unit>
%

>  <measurement>
39.14

$$$$
>  <compound>
Nc1ncc(-c2cnn(C3CCN(CCOCCNC(=O)C4CN(c5ccc6c(c5)C(=O)N(C5CCC(=O)NC5=O)C6=O)C4)CC3)c2)nc1C(=O)O[C@@H](C(=O)Nc1ccc(F)cc1)c1ccccc1 (some centres unmarked)

>  <measurement-unit>
%

>  <measurement>
34.64

$$$$

// Necroptosis inhibition assay (Rescue %) 1 μM value for Nc1ncc(-c2cnn(C3CCN(CCOC4CCN(C(=O)COc5cccc6c5C(=O)N(C5CCC(=O)NC5=O)C6=O)CC4)CC3)c2)nc1C(=O)OC(C(=O)Nc1ccc(F)cc1)c1ccccc1 (centres unmarked) : 84.44

Entry under test: Nc1ncc(-c2cnn(C3CCN(CCOCCOCCNC(=O)CNc4cccc5c4C(=O)N(C4CCC(=O)NC4=O)C5=O)CC3)c2)nc1C(=O)O[C@@H](C(=O)Nc1ccc(F)cc1)c1ccccc1 (some centres unmarked) . Its Necroptosis inhibition assay (Rescue %) 1 μM was 39.17

Lab note: Nc1ncc(-c2cnn(C3CCN(CCCCCCCCCCNC(=O)COc4ccc5nnn(C6CCC(=O)NC6=O)c(=O)c5c4)CC3)c2)nc1C(=O)O[C@@H](C(=O)Nc1ccc(F)cc1)c1ccccc1 (some centres unmarked) gave Necroptosis inhibition assay (Rescue %) 1 μM of 44.28
